- assay.name: qHTS profiling of the MIPE4 collection as inhibitors of Plasmodium falciparum (DD2) proliferation (Rep 2) (AID 743346)
- assay.setup: P. falciparum Dd2 in erythrocytes, SYBR Green DNA, 72 h; at 28.5 µM
- Experimental: Plasmodium falciparum is a virulent malarial parasite that kills 1-2 million people worldwide each year. […] Because mature erythrocytes lack DNA, only Plasmodium-derived DNA is detected. The SYBR Green viability assay was adapted from a method described previously (Plouffe et al., 2008). […] The following morning, fluorescence intensity at 485(14) nm excitation and 535(25) nm emission wavelengths was measured on an EnVision (Perkin Elmer) plate reader. […]
measured.quantity: parasite growth, % of control (lower = inhibition)
Don't forget the unit after the value.

// worked examples, parasite growth, % of control (lower = inhibition) included
1) CN(C)NC(=O)CCC(=O)O
141%
2) CCN1C[C@]2(OC(=O)c3ccccc3NC(C)=O)CC[C@H](OC)[C@@]34[C@H]5CC6[C@@H](OC)C[C@](O)(C(C[C@@H]23)[C@@H]14)[C@@]5(O)[C@@H]6OC
72.6%

Here is the next item to consider.
Give me measured parasite growth, % of control (lower = inhibition), please, for this compound: CCCC[N+]1(C)[C@H]2CC(OC(=O)[C@H](CO)c3ccccc3)C[C@H]1[C@H]1O[C@H]12 (stereo partly drawn)
86.4%

---

- assayed.target: Glucocorticoid receptor (Homo sapiens)
- assay.name: qHTS assay for small molecule agonists of glucocorticoid receptor signaling (AID 588532);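 note: 100% = dexamethasone at 0.1 µM and 0% = DMSO only wells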
- assay.setup: HeLa MMTV-bla, beta-lactamase ratio, agonist, 18 h; stronger effect = higher value; percent of dexamethasone control, DMSO zero
Results filed as inconclusive are left out.
Each entry below carries its recorded activation.
Express it in %; write the number only.

// worked examples, activation included
1. Nc1ccc(N=Nc2ccccc2)cc1
-2.94
2. CO/C=C(/C(=O)OC)c1ccccc1Oc1cc(Oc2ccccc2C#N)ncn1
-0.939
3. Clc1cnc(Oc2ccc(Oc3ncc(Cl)cc3Cl)cc2)c(Cl)c1
-2.42
4. CCCN(CCC)c1c([N+](=O)[O-])cc(S(N)(=O)=O)cc1[N+](=O)[O-]
-3.33
5. CCCCCC[C@H]1C(=O)O[C@H](C)[C@H](NC(=O)c2cccc(NC=O)c2O)C(=O)O[C@@H](C)[C@@H]1OC(=O)CC(C)C
-11.1
6. O=C(O)COc1nc(Cl)c(Cl)cc1Cl
-16
7. CC(C)Oc1cccc(NC(=O)c2ccccc2C(F)(F)F)c1
-4.03
8. Nc1ccc([N+](=O)[O-])cc1
0.519

Here is the next item to consider.
Give me measured activation, please, for this compound: OCCCBr
-1.2

---

- System: SC27B
- assay.name: qHTS profiling for inhibitors of Plasmodium falciparum proliferation (AID 504749); note: nearly all actives have a fitted effect of over 60% in size; note: potency is the fitted concentration of half-maximal effect
- assay.setup: P. falciparum in erythrocytes, SYBR Green DNA, 72 h; series mostly up to 28.7 µM
Inconclusive results are not listed. Calls of active or inactive are those of the source. Calls come from the whole dose curve; as a rule, active = well fitted inhibition curve with a large enough effect; inconclusive = small, poorly fitted or top-dose-only effect; inactive = flat fitted curve, though single readings scatter.
measured.quantity: Potency

// worked examples, Potency included
1. CCCCCCCCCCCCCCCC[N+](C)(C)C
12.6 µM (active)
2. CN1C2CCC1CC(OC(=O)c1cc(Cl)cc(Cl)c1)C2 (centres undefined)
inactive
3. COC(=O)[C@@H](N)CCCN=C(N)N[N+](=O)[O-]
inactive
4. NC1=NC(=O)N2CC12 (centres undefined)
inactive
5. C1CCC(NC2CCCCC2)CC1
inactive
6. CN(C)[C@@H]1C(=O)C(C(N)=O)=C(O)[C@@]2(O)C(=O)C3=C(O)c4c(O)cccc4[C@@](C)(O)[C@H]3[C@H](O)[C@@H]12
inactive
7. CCCCc1ccc(C(=O)O)nc1
inactive
8. C#CC1(O)CCC2C3CCC4=CC(=O)CCC4(C)C3CCC21C (centres undefined)
inactive

Here is the next item to consider.
Give me measured Potency, please, for this molecule: CC(=O)[O][Hg][c]1ccccc1
4.47 µM (active)

---

- Tested on: NIH3T3
- assay.name: Cytotoxic Profiling of Annotated Libraries Using Quantitative High-Throughput Screening (AID 1296008); note: % is set by controls: 0 for no effect and ±100 for the full control effect; nearly all actives have a fitted effect of over 60% in size
- assay.setup: Five cell lines viability, CellTiter-Glo ATP luminescence, 48-72 h; stronger effect = lower value
Inconclusive results are not listed.
Each entry below carries its recorded max response.
Express it in %; write the number only.

// worked examples, max response included
1. COc1cc2cc(c1Cl)N(C)C(=O)C[C@H](OC(=O)C(C)C)[C@]1(C)O[C@H]1[C@H](C)[C@@H]1C[C@@](O)(NC(=O)O1)[C@H](OC)C=CC=C(C)C2
-88.8
2. O=C(O)COc1nc(Cl)c(Cl)cc1Cl
-4.26
3. COc1ccc2c(c1)CN(C)CC2c1ccc(Cl)c(Cl)c1 (stereo unspecified)
-1.98

Give me measured max response, please, for this compound: COc1nn(CSP(=S)(OC)OC)c(=O)s1
-0.106

Give me measured max response, please, for this compound: c1cc2ccc3cccc4ccc(c1)c2c34
-19.4

Give me measured max response, please, for this compound: CCNC(=O)CC1N=C(c2ccc(Cl)cc2)c2cc(OC)ccc2-n2c(C)nnc21 (stereo unspecified)
4.41

---

- assay.name: qHTS of pediatric cancer cell lines to identify multiple opportunities for drug repurposing: Primary screen for A673 cells (AID 1347092); note: % is set by controls: 0 for no effect and ±100 for the full control effect; nearly all actives have a fitted effect of over 45% in size
- assay.setup: A673 Ewing sarcoma viability, CellTiter-Glo ATP luminescence, 48 h; series mostly up to 46 µM
Results filed as inconclusive are left out. Active and inactive are the calls of the source. Calls come from the whole dose curve; as a rule, active = well fitted cell-killing curve with a large enough effect; inconclusive = small, poorly fitted or top-dose-only effect; inactive = no such curve, though single readings can be large or run the other way.
measured.quantity: outcome

1. COC(C)(C)CCCC(C)C/C=C/C(C)=C/C(=O)OC(C)C (stereo not drawn)
inactive
2. O=S(=O)(c1ccc(Cl)cc1)c1ccc(Cl)cc1
inactive
3. CC(C)N(CCNC(=O)CN1CCCC1=O)C(C)C
inactive

---

- Test system: HeLa
- assay.name: Primary qHTS to identify gynecologic anti-cancer compounds using libraries of approved drugs and bioactive compounds (AID 1345084); note: nearly all actives have a fitted effect of over 55% in size
- assay.setup: Gynecologic cancer cell panel viability, ATPlite luminescence, 48 h; series mostly up to 57.5 µM
Results filed as inconclusive are left out. Active and inactive are the calls of the source. Calls come from the whole dose curve; as a rule, active = well fitted cell-killing curve with a large enough effect; inconclusive = small, poorly fitted or top-dose-only effect, or effect the other way; inactive = flat fitted curve, though single readings scatter.
In this exercise, the only acceptable responses are active, inactive

1) Cc1ccccc1-n1c(Cn2cnc3c(N)ncnc32)nc2cccc(C)c2c1=O
inactive
2) CCN1CCN(C(=O)Cc2ccc(Nc3ncc(F)c(Nc4ccc(C(=O)Nc5ccccc5Cl)cc4)n3)cc2)CC1
active
3) CCN(CC)C(=O)c1ccc(C2=CC3(CCNCC3)Oc3cccc(O)c32)cc1
inactive

Which result was noted for this compound in the test: CC(C)NCC(O)c1ccc([N+](=O)[O-])cc1 (centres undefined)
inactive

---

- assay.name: Quantitative High-Throughput drug screen in 47 multiple myeloma cell lines against the NCATS MIPE library collection: XG6_PLB cell viability assay (AID 1919865); note: nearly all actives have a fitted effect of over 40% in size; note: potency is the fitted concentration of half-maximal effect
- assay.setup: XG6 myeloma viability, CellTiter-Glo ATP luminescence, 48 h; series mostly up to 45.8 µM
Results filed as inconclusive are left out. Active and inactive are the calls of the source. The call rests on the fitted dose curve; in most records, active means well fitted cell-killing curve with a large enough effect; inconclusive means small, poorly fitted or top-dose-only effect, or effect the other way; inactive means no such curve, though single readings can be large or run the other way.
measured.quantity: Potency

1) CCOP(=O)(OCC)C(C)NC(=O)N(CCCl)N=O (stereo not drawn)
inactive
2) COc1cc([C@@H]2c3cc4c(cc3[C@@H](O)C3COC(=O)C32)OCO4)cc(OC)c1O (stereo partly drawn)
14.8 nM (active)
3) CC(C)[C@]12O[C@@H]1[C@@H]1O[C@]13[C@]1(O[C@H]1C[C@@H]1C4=C(CC[C@@]13C)C(=O)OC4)[C@H]2O
inactive

---

- assay.name: Counterscreen for APE1 Inhibitors: Fluorescent Dye Displacement Validation Assay (AID 1707)
- assay.setup: fluorescent dye displacement from DNA; series mostly up to 57.1 µM
Records with an inconclusive call do not appear. Calls of active or inactive are those of the source. The call rests on the fitted dose curve; in most records, active means well fitted inhibition curve with a large enough effect; inconclusive means small, poorly fitted or top-dose-only effect; inactive means no such curve, though single readings can be large or run the other way.
In this exercise, the only acceptable responses are class 1 for active, class 0 for inactive

Worked cases, answers included:
1) NCCc1c[nH]c2ccc(O)cc12
class 0
2) C[C@@H](N)Cc1cnc[nH]1
class 0
3) CNCCc1c[nH]c2ccc(O)cc12
class 0

Which result was noted for this compound in the test: CC[C@@H]1C(=O)OC[C@@H]1Cc1cncn1C
class 0

Which result was noted for this compound in the test: COc1ccc2c(c[n+](C)c3c4cc5c(cc4ccc23)OCO5)c1OC
class 1

Which result was noted for this compound in the test: Cn1cnc(CCN)c1
class 0

Which result was noted for this compound in the test: S=C(NC1CCCCC1)N1CCC(c2cnc[nH]2)CC1
class 0

Which result was noted for this compound in the test: O=C(O)Cc1cnc[nH]1
class 0

Which result was noted for this compound in the test: NC(=O)CN1CC(O)CC1=O (stereo not drawn)
class 0

Which result was noted for this compound in the test: CC(C)NC(C)Cc1ccc(I)cc1 (stereo not drawn)
class 0

Which result was noted for this compound in the test: CCCN1CCC[C@H](c2cccc(O)c2)C1
class 0

Which result was noted for this compound in the test: C[C@@H]1O[C@H](C[N+](C)(C)C)C[C@H]1O
class 0

Which result was noted for this compound in the test: Cc1nc(-c2ccc(-c3ccc(C(=O)N4CCc5cc6c(cc54)C4(CCN(C)CC4)CO6)cc3)c(C)c2)no1
class 0
